Test system: Paracentrotus lividus
Assay: Antimitotic activity in sea urchin fertilized egg assessed as cleavage alteration treated at 8 to 20 mins post-fertilization measured at 2.5 to 5.5 hrs post-fertilization
Type: functional
Strictly below 0.05 µM in EC: class 1. Otherwise: class 0.

INSERT INTO assay_data (mol_smiles, class) VALUES
  ('COc1ccc(-c2c(-c3cc(OC)c4c(c3OC)OCO4)noc2N)cc1', 'class 0'),
  ('COc1ccc(-c2noc(N)c2-c2cc(OC)c3c(c2)OCO3)cc1', 'class 0'),
  ('COc1ccc(-c2c(-c3cc(OC)c4c(c3)OCO4)noc2N(C(C)=O)C(C)=O)cc1', 'class 1'),
  ('COc1ccc(-c2onc(N)c2-c2cc(OC)c(OC)c(OC)c2)cc1', 'class 1'),
  ('COc1ccc(-c2noc(N)c2-c2cc(OC)c(OC)c(OC)c2)cc1', 'class 1'),
  ('COc1ccc(-c2onc(NC(C)=O)c2-c2ccc(Cl)cc2)cc1', 'class 0');

// query Does this compound meet the criterion EC < 0.05 µM? COc1ccc(-c2c(NC(C)=O)noc2-c2cc(OC)c3c(c2OC)OCO3)cc1
// result class 0

// query Does this compound meet the criterion EC < 0.05 µM? COc1ccc(-c2onc(NC(C)=O)c2-c2ccc([N+](=O)[O-])cc2)cc1
// result class 0

// query Does this compound meet the criterion EC < 0.05 µM? COc1ccc(-c2noc(N)c2-c2cc3c(c(OC)c2OC)OCO3)cc1
// result class 0

// query Does this compound meet the criterion EC < 0.05 µM? COc1ccc(-c2c(-c3cc(OC)c(OC)c(OC)c3)noc2N)cc1
// result class 1

// query Does this compound meet the criterion EC < 0.05 µM? COc1ccc(/C=C\c2cc(OC)c(OC)c(OC)c2)cc1O
// result class 1

// query Does this compound meet the criterion EC < 0.05 µM? COc1ccc(-c2c(-c3cc(OC)c4c(c3)OCO4)noc2N)cc1
// result class 1

// query Does this compound meet the criterion EC < 0.05 µM? COc1ccc(-c2c(-c3ccccc3)noc2N)cc1OC
// result class 0

// query Does this compound meet the criterion EC < 0.05 µM? COc1ccc(-c2c(NC(C)=O)noc2-c2cc(OC)c(OC)c(OC)c2)cc1
// result class 0

// query Does this compound meet the criterion EC < 0.05 µM? COc1ccc(-c2onc(NC(C)=O)c2-c2ccc(OC)cc2)cc1
// result class 0

// query Does this compound meet the criterion EC < 0.05 µM? COc1ccc(-c2noc(N)c2-c2ccc(Cl)cc2)cc1
// result class 0

// query Does this compound meet the criterion EC < 0.05 µM? COc1ccc(C(=O)Nc2noc(-c3ccc(OC)cc3)c2-c2cc(OC)c(OC)c(OC)c2)cc1
// result class 0

// query Does this compound meet the criterion EC < 0.05 µM? COc1ccc(-c2c(NC(C)=O)noc2-c2cc(OC)c3c(c2)OCCO3)cc1
// result class 0

// query Does this compound meet the criterion EC < 0.05 µM? COc1ccc(-c2onc(N)c2-c2cc(OC)c3c(c2)OCO3)cc1
// result class 0

// query Does this compound meet the criterion EC < 0.05 µM? COc1ccc(-c2c(NC(C)=O)noc2-c2cccc(OC)c2)cc1
// result class 0

// query Does this compound meet the criterion EC < 0.05 µM? COc1ccc(-c2c(-c3cc(OC)c4c(c3)OCCO4)noc2N)cc1
// result class 1

// query Does this compound meet the criterion EC < 0.05 µM? COc1ccc(/C=C\c2cc(OC)c3c(c2)OCO3)cc1O
// result class 1

The measured values listed here are drawn from ChEMBL document CHEMBL3112491.
